- targetOfAssay: Phosphatidylinositol 4,5-bisphosphate 3-kinase catalytic subunit alpha isoform (Homo sapiens)
- methodNotes: Inhibition of myristoylated PI3K-alpha (unknown origin) overexpressed in Rat1 cells assessed as inhibition of Akt phosphorylation
- Type: cell-based
Response field label: string, one of yes (1) (IC50 strictly below 1000 nM) or no (0).

Would you please look over these solved cases?
[
  {
    "smilesCode": "COc1ccc(-c2ccc3ncnc(O[C@H]4CCN(C(C)=O)C4)c3c2)cc1OC",
    "labelValue": "yes (1)"
  },
  {
    "smilesCode": "CCC(=O)N1CC[C@H](Oc2ccnc3ccc(-c4ccc(OC)nc4)nc23)C1",
    "labelValue": "no (0)"
  }
]

Could you now look at the following compound, please?
Lab note: confirm whether the reported IC50 for this compound is below 1000 nM, equality not counting. compound: "CCC(=O)N1CC[C@@H](Oc2cnc3ccc(-c4ccc(OC)c(OC)c4)cc3n2)C1"
no (0)

====

- targetOfAssay: Phosphatidylinositol 4,5-bisphosphate 3-kinase catalytic subunit delta isoform (Homo sapiens, UniProt O00329)
- Sequence (O00329 whole entry, canonical isoform): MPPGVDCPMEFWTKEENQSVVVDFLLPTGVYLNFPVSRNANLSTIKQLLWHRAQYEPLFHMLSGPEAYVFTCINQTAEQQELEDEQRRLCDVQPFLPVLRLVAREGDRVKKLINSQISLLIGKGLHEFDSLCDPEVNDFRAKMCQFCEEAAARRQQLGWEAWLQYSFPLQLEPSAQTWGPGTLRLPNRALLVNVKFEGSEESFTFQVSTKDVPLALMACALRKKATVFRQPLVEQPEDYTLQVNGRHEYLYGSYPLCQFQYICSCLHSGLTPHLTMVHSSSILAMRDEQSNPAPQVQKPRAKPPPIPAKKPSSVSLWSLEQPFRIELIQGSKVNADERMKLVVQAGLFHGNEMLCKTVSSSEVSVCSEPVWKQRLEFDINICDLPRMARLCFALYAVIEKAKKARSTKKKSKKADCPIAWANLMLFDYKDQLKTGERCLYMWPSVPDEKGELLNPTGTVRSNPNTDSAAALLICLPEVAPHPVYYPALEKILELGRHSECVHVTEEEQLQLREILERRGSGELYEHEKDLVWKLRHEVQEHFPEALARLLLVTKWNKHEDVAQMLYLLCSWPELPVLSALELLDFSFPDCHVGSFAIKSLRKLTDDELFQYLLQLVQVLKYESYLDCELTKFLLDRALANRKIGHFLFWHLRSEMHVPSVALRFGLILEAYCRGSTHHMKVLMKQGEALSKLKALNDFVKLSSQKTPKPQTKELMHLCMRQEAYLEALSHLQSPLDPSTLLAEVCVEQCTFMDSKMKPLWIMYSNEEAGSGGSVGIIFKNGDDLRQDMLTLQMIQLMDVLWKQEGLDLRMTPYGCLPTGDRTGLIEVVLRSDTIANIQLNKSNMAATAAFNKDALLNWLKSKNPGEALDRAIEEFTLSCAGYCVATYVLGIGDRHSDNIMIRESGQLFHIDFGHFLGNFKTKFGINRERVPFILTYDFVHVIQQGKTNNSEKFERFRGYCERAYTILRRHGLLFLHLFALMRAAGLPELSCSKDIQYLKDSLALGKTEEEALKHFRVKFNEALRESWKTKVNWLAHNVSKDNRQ
- methodNotes: Inhibition of myristoylated PI3K-delta (unknown origin) overexpressed in Rat1 cells assessed as inhibition of Akt phosphorylation
- Format: cell-based
measuredProperty: IC50 (µM)
Quick reminder: number only, in µM, skip the unit.

# annotated cases, reported IC50 shown
[
  {
    "smilesCode": "COc1ccc(-c2ccc3ncnc(O[C@H]4CCN(C(C)=O)C4)c3c2)cc1OC",
    "IC50 [µM]": 0.082
  },
  {
    "smilesCode": "CCC(=O)N1CC[C@H](Oc2ncnc3ccc(-c4cnc(OC)c(C#N)c4)cc23)C1",
    "IC50 [µM]": 0.079
  },
  {
    "smilesCode": "CCC(=O)N1CC[C@H](Oc2ccnc3ccc(-c4ccc(OC)nc4)cc23)C1",
    "IC50 [µM]": 0.162
  }
]

Here is the next item to consider.
I would be grateful if you could share the reported IC50 for "CCC(=O)N1CC[C@@H](Oc2cnc3ccc(-c4ccc(OC)c(OC)c4)cc3n2)C1" .
0.072

====

- targetOfAssay: Phosphatidylinositol 4,5-bisphosphate 3-kinase catalytic subunit delta isoform (Homo sapiens)
- methodNotes: Inhibition of PI3K-delta (unknown origin) by KinaseGlo assay
// reported pIC50 per item
# pIC50: negative log10 of molar concentration; output just the value

[
  {
    "smilesCode": "CCC(=O)N1CC[C@@H](Oc2cnc3ccc(-c4ccc(OC)c(OC)c4)cc3n2)C1",
    "pIC50": 7.82
  },
  {
    "smilesCode": "COc1ccc(-c2ccc3ncnc(O[C@H]4CCN(C(C)=O)C4)c3c2)cc1OC",
    "pIC50": 7.80
  }
]

Please examine the following record next.
# pIC50 lookup, item "CCC(=O)N1CC[C@H](Oc2ccnc3ccc(-c4ccc(OC)nc4)cc23)C1"
7.96

====

- targetOfAssay: Phosphatidylinositol 4,5-bisphosphate 3-kinase catalytic subunit alpha isoform (Homo sapiens, UniProt P42336)
- Sequence (P42336 whole entry, canonical isoform): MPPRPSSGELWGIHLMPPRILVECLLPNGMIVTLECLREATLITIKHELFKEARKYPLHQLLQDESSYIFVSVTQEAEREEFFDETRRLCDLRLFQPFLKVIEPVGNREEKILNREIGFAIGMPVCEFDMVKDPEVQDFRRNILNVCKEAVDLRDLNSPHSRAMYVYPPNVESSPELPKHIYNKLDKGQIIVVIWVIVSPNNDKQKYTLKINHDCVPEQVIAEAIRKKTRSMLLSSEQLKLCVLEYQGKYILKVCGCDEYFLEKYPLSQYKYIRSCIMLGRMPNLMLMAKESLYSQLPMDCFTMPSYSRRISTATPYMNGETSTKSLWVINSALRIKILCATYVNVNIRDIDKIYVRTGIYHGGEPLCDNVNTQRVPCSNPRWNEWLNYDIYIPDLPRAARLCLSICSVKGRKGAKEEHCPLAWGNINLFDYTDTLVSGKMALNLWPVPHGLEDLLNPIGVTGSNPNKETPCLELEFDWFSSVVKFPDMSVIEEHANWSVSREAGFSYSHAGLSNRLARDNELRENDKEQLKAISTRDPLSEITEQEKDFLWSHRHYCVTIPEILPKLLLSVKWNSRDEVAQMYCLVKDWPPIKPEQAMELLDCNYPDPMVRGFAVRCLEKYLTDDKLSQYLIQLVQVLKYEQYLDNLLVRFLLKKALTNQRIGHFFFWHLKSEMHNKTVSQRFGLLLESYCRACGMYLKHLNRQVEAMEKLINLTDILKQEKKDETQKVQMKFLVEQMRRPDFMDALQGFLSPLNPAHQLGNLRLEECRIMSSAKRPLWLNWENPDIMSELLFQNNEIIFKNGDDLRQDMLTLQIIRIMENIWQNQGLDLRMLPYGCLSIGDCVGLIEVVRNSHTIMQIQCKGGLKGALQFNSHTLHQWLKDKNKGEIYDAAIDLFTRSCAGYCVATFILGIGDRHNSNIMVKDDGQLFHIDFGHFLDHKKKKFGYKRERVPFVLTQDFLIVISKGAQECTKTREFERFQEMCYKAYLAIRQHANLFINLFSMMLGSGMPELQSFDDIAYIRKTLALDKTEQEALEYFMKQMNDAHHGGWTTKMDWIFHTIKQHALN
- methodNotes: Inhibition of myristoylated PI3K-alpha (unknown origin) overexpressed in Rat1 cells assessed as inhibition of Akt phosphorylation
- Type: cell-based
measuredProperty: IC50

[
  {
    "smilesCode": "CCC(=O)N1CC[C@H](Oc2ccnc3ccc(-c4ccc(OC)nc4)cc23)C1",
    "IC50": "606 nM"
  }
]

What value of IC50 has been recorded for this entry: "CCC(=O)N1CC[C@H](Oc2ncnc3ccc(-c4ccc(OC)nc4)cc23)C1"
1030 nM

Then this molecule: "CCC(=O)N1CC[C@H](Oc2cnnc3ccc(-c4ccc(OC)nc4)cc23)C1"
> 10000 nM

Another molecule: "COc1ccc(-c2ccc3ncnc(O[C@H]4CCN(C(=O)OC(C)(C)C)C4)c3c2)cc1OC"
262 nM

Also "CCC(=O)N1CC[C@H](Oc2ncnc3ccc(-c4cnc(OC)c(C#N)c4)cc23)C1" ?
1380 nM
